Molecular target: Beta-2 adrenergic receptor (Homo sapiens)
Experiment: agonist-induced loss of surface beta2AR – cell-based, FAP fluorogen, flow cytometry, validation set, pilot screen (AID 504459);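 also: agonist-driven loss of surface beta2AR via internalization measured by FAP dye flow cytometry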
Conditions: Am2.2-beta2AR cells, at 10 µM, active compounds read high
Activity calls are given as the source filed them.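 The calls were made as follows: active = percent response above 42, roughly 3 SD of non-fluorescent test compounds; inactive = the rest.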
Item-by-item account of response

Known results for molecules:
• C[C@H]1C[C@@H]2[C@H]([C@@H](O)C[C@@]3(C)[C@H]2CC[C@]3(O)C(=O)CO)[C@@]2(C)C=CC(=O)C=C12 = 1.51% (inactive)
• CCOc1ccc(C(=O)N2CCCC2C(=O)O)cc1 (stereo unspecified) = -15.7% (inactive)
• CCN(CC)c1ccc(C2=NNC(=O)CC2C)cc1[N+](=O)[O-] (stereo unspecified) = 0.9% (inactive)
• COc1ccc(S(=O)(=O)NCc2ccco2)c2ccccc12 = -3.81% (inactive)
• CC12CCC(C(=O)N(CCC#N)CCC#N)(CC1=O)C2(C)C (stereo unspecified) = -1.84% (inactive)

Given the entry CCNC(=S)N1CCN(CCN2C(=O)c3cccc4cccc(c34)C2=O)CC1 , report its measured response. -20.5% (inactive)

Given the entry C/C(=N\NC(=O)C1(C)CC1(Br)Br)c1ccc([N+](=O)[O-])cc1 (stereo unspecified) , report its measured response. -9.52% (inactive)

Given the entry CC(C)CCc1noc(CN2CCC(CCN3CCCC3=O)CC2)n1 , report its measured response. -4.37% (inactive)

Given the entry O=C(OCC1CCCN2CCCCC12)c1ccc2c(c1)OCO2 (stereo unspecified) , report its measured response. -1.89% (inactive)

Given the entry NCCc1ccc(O)c(O)c1 , report its measured response. 11.2% (inactive)

Given the entry Nc1ccc2nc(Cc3ccccc3)[nH]c2c1 , report its measured response. 10.6% (inactive)

###

Assay: cytosolic pH regulators acting via V-ATPase – S. cerevisiae, pHLuorin, HTS validation (AID 504600);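 also: plate controls were DMSO for no effect and reference compound for full effect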
Conditions: V-ATPase proton transport, at 10 µM, active compounds read high
quantity_measured: response (%)
// units = %; emit number, no label

- CC1(C)CC(=O)c2cn3c(nc2C1)nc1ccccc13: 3.76

Given the entry COc1ccc(C(=O)NCCC2=CCCCC2)cc1[N+](=O)[O-] , report its measured response. -2.15

Given the entry COc1ccc(C2C(C#N)=C(N)Oc3cc(C)[nH]c(=O)c32)c(OC)c1OC (stereo unspecified) , report its measured response. -1.92

Given the entry CCNC(=O)C(Cc1ccccc1)NC(=O)OCc1ccccc1 (stereo unspecified) , report its measured response. 0.55

Given the entry CN(C)[C@@H]1C(=O)C(C(N)=O)=C(O)[C@@]2(O)C(=O)C3=C(O)c4c(O)ccc(Cl)c4[C@@H](O)[C@H]3C[C@@H]12 , report its measured response. -7.23

Given the entry O=C(NC1CCCCC1)N1CCc2[nH]c3ccccc3c2C1 , report its measured response. 13.8

###

Assay: TOR pathway LAP4-GFP level changes – S. cerevisiae, multiplex flow cytometry, primary screen (AID 1873)
Details: S. cerevisiae LAP4-GFP expression, 3 h, at 10 µM, active compounds read high
Records with an inconclusive call do not appear.
Item-by-item account of GFP response vs DMSO
// units = %; emit number, no label

Known results for molecules:
- COc1ccc(Br)cc1C(=O)Nc1ccc(C(=O)O)cc1: 127
- COc1ccc(CN2CCCCC2C(=O)Nc2ccc(OC)c(OCC(C)C)c2)cc1OC (stereo not drawn): 90.7
- CC1=C(/C=C/C(C)=C/C=C/C(C)=C/C(=O)O)C(C)(C)CCC1: 125
- CCOc1ccc(C(NC(C)=O)c2ccc(OC)c(OC)c2)cc1 (stereo not drawn): 101
- C=C(C)Cn1c(NCCOC)nc2c1c(=O)[nH]c(=O)n2C: 96.6

Given the entry CC(=O)SC1CC2=CC(=O)CCC2(C)C2CCC3(C)C(CCC34CCC(=O)O4)C12 (stereo not drawn) , report its measured GFP response vs DMSO. 109

Given the entry Cc1ccc(S(=O)(=O)N[C@@H](Cc2ccccc2)C(=O)CCl)cc1 , report its measured GFP response vs DMSO. 108

Given the entry O=C(N/N=C/c1ccc([N+](=O)[O-])o1)c1ccc(O)cc1 , report its measured GFP response vs DMSO. 77.6

Given the entry CCOC(=O)C(=O)N1CCN(c2ccccc2OC)CC1 , report its measured GFP response vs DMSO. 94.8

Entry source: PubChem BioAssay
